Every entry's value here was drawn from the supplement of paper PMC7214452.

test system: JJN3 (cancer type: MM); assay: normalized area under the dose-response curve (viability relative to DMSO control) (fraction); higher = less sensitive (more viable cells); conditions: exposure time not given
Counter-ions that a name gives are not always drawn.
Field: normalized area under the dose-response curve. Provide a value for each of the compounds that follow.
Answers are plain numbers.

Below, 8 compounds whose answers are already recorded.
[
  {
    "compound": "O=P1(N(CCCl)CCCl)NCCCO1 (centres undefined) [Cyclophosphamide]",
    "measured": 0.95
  },
  {
    "compound": "Cc1ccc(F)c(NC(=O)Nc2ccc(-c3cccc4[nH]nc(N)c34)cc2)c1",
    "measured": 0.603
  },
  {
    "compound": "Nc1nc(F)nc2c1ncn2[C@@H]1O[C@H](COP(=O)(O)O)[C@@H](O)[C@@H]1O [Fludarabine phosphate]",
    "measured": 0.934
  },
  {
    "compound": "CC(C)(C)c1nc(-c2cccc(NS(=O)(=O)c3c(F)cccc3F)c2F)c(-c2ccnc(N)n2)s1 [Dabrafenib mesylate]",
    "measured": 0.804
  },
  {
    "compound": "O=C(CCCCCCC(=O)Nc1ccccc1)NO",
    "measured": 0.649
  },
  {
    "compound": "Nc1cccc2c1C(=O)N(C1CCC(=O)NC1=O)C2=O (centres undefined) [Pomalidomide]",
    "measured": 0.994
  },
  {
    "compound": "Cc1[nH]c2ccccc2c1CCNCc1ccc(/C=C/C(=O)NO)cc1",
    "measured": 0.56
  },
  {
    "compound": "Cn1ncc(Cl)c1-c1cc(C(=O)N[C@H](CN)Cc2cccc(F)c2)sc1Cl",
    "measured": 0.55
  }
]

Which normalized area under the dose-response curve value is on record for Cc1noc2c1-c1ccccc1C(c1ccc(Cl)cc1)=N[C@H]2CC(N)=O ?
0.556
